# testedOn: T1, HLA-DRB1*1101 (human)
# T1 construct: human MHC class II allotype
# procedureDetails: competitive MHC class II binding assay; competitor: control peptide Influenza haemagglutinin 307-319;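 note: each peptide was tested for its capacity to displace a known reference binder from human MHC class II allotypes, and its IC50 is expressed relative to that of the reference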
Item-by-item account of ratio of IC50 to that of the control peptide
Report the figure in ratio without appending any unit label.

Prompt: # query: ratio of IC50 to that of the control peptide of entry KPFQLEAVFEANQNT [HDM21]
Completion: 11.7
